System: P-gp (MDR1)
ASSAY REMARKS: In vitro cell permeability / P-gp substrate assay
MEASUREMENT SETUP: pig, LLC-PK1, pH 7.4, Papp BA, LLC-MDR1, basolateral to apical, no inhibitor
READOUT NAME: Papp B→A at 120 min, 5 µM (×10⁻⁶ cm/s)

smiles_string=CSCC[C@@H]1NC(=O)CNC(=O)CNC(=O)[C@H](C)NC(=O)[C@H](C(C)C)NC(=O)CNC(=O)[C@H](CC(C)C)NC(=O)[C@@H]2CCCN2C(=O)[C@H](CC(=O)O)NC(=O)[C@H](CCC(=O)O)NC(=O)[C@H](Cc2ccc(O)cc2)NC(=O)[C@H](CC(C)C)NC(=O)CNC1=O test_result=0.32

Attribution: paper PMC12714728
